Tested on: S. pneumoniae UC9912
measured-parameter: MIC (µg/mL)

INSERT INTO assay_data (molecule, target_system, measured_parameter, number) VALUES
  ('CC(F)(F)C(=O)NC[C@H]1CN(c2ccc([C@H]3[C@@H]4C[S+]([O-])C[C@@H]43)c(F)c2)C(=O)O1 (some centres unmarked)', 'S. pneumoniae UC9912', 'MIC', 4),
  ('CC(=O)NC[C@H]1CN(c2ccc([C@H]3[C@@H]4CN(C(=O)C5CC5)C[C@@H]43)c(F)c2)C(=O)O1', 'S. pneumoniae UC9912', 'MIC', 4),
  ('CC(=O)NC[C@H]1CN(c2ccc([C@H]3[C@@H]4CN(C(=N)N)C[C@@H]43)c(F)c2)C(=O)O1', 'S. pneumoniae UC9912', 'MIC', 8),
  ('CC(=O)NC[C@H]1CN(c2ccc([C@H]3[C@@H]4C[S+]([O-])C[C@@H]43)cc2)C(=O)O1 (some centres unmarked)', 'S. pneumoniae UC9912', 'MIC', 0.5),
  ('O=C(NC[C@H]1CN(c2ccc([C@H]3[C@@H]4C[S+]([O-])C[C@@H]43)c(F)c2)C(=O)O1)C1CC1 (some centres unmarked)', 'S. pneumoniae UC9912', 'MIC', 1),
  ('CCC(=O)NC[C@H]1CN(c2ccc([C@H]3[C@@H]4CNC[C@@H]43)c(F)c2)C(=O)O1', 'S. pneumoniae UC9912', 'MIC', 1),
  ('CN/C(=N\C#N)N1C[C@@H]2[C@H](C1)[C@H]2c1ccc(N2C[C@H](CNC(C)=O)OC2=O)cc1F', 'S. pneumoniae UC9912', 'MIC', 1),
  ('CCC(=O)NC[C@H]1CN(c2ccc([C@H]3[C@@H]4CN(C(N)=O)C[C@@H]43)c(F)c2)C(=O)O1', 'S. pneumoniae UC9912', 'MIC', 0.25),
  ('NC(=O)N1C[C@@H]2[C@H](C1)[C@H]2c1c(F)cc(N2C[C@H](Cn3ccnn3)OC2=O)cc1F', 'S. pneumoniae UC9912', 'MIC', 2),
  ('CC(=O)NC[C@H]1CN(c2cc(F)c([C@H]3[C@@H]4CS(=O)(=O)C[C@@H]43)c(F)c2)C(=O)O1', 'S. pneumoniae UC9912', 'MIC', 0.5),
  ('CC(=O)NC[C@H]1CN(c2ccc([C@H]3[C@@H]4CN(C(=O)[C@H](C)O)C[C@@H]43)c(F)c2)C(=O)O1', 'S. pneumoniae UC9912', 'MIC', 2),
  ('CC(=O)NC[C@H]1CN(c2ccc([C@H]3[C@@H]4COC[C@@H]43)cc2)C(=O)O1', 'S. pneumoniae UC9912', 'MIC', 2),
  ('CC(=O)NC[C@H]1CN(c2ccc([C@H]3[C@@H]4CN(c5nn[nH]n5)C[C@@H]43)c(F)c2)C(=O)O1', 'S. pneumoniae UC9912', 'MIC', 32),
  ('CC(=O)NC[C@H]1CN(c2ccc(N3CCOCC3)c(F)c2)C(=O)O1 [linezolid, reference compound]', 'S. pneumoniae UC9912', 'MIC', 1);
